Test system: KM-20L2
assay.method.text: NCI tumour cell line growth inhibition, 48 h
Activity calls are given as the source filed them. No stated cut-off is given here; in the data, active = GI50 up to about 1.1 µM and inactive = higher.
List of GI50 values.
parameter: GI50

CSc1nc(-c2ccccc2)c2c(n1)-c1ccccc1CC2    78.5 µM (inactive)
N#C/C(=C/c1cccc2ccccc12)C(=O)c1ccccc1    19 µM (inactive)
CN(C=O)/C=C/c1cc(O)ccc1O    > 46 µM (inactive)
CSCSCC(N)CO.Cc1[nH]c(=O)[nH]c(=O)c1/C=C/C(=O)O    > 625 µM (inactive)
CC(=O)CC(=O)CCC(=O)Nc1cccc(C(F)(F)F)c1    > 100 µM (inactive)
O=C(/C=C/c1cc(Cl)cc(Cl)c1O)c1cccc(O)c1    48.3 µM (inactive)
COc1ccc(/C(=N\NC(=N)N)C(c2ccc(OC)cc2)C2OC(=O)c3ccccc32)cc1 (stereo not given)    > 100 µM (inactive)
O=C(/C=C/c1ccc(OCCCCCCCCCCOc2ccc(/C=C/C(=O)c3ccc(Cl)cc3)cc2)cc1)c1ccc(Cl)cc1    > 100 µM (inactive)
Cc1ccc(OP2(=O)Oc3ccc4ccccc4c3CN2c2ccc(Cl)cc2)cc1C (stereo not given)    > 100 µM (inactive)
Nc1ncnc2c1ncn2C1OC(CSCc2ccc(Cl)cc2)C(O)C1O (stereo not given)    9.55 µM (inactive)
CCOC(=O)C1=C(c2ccccc2)NC(c2ccccc2)=C(C(=O)OCC)c2c1c(=O)cc[nH]c2=O    > 100 µM (inactive)
CCOC(=O)CC1=N/C(=N/C(=N)N[N+](=O)[O-])SC1    > 100 µM (inactive)
CC(=O)c1ccc(NC(=O)C(=O)C(C(=O)/C=C/c2ccccc2)C2OC(=O)c3ccccc32)cc1 (stereo not given)    > 100 µM (inactive)
CNC1=Nc2ccc(Cl)cc2C(OP(=O)(N2CCOCC2)N2CCOCC2)=NC1    > 100 µM (inactive)
CN(C)c1ccc2nc3c(ccc4ccccc43)[o+]c2c1    13.8 µM (inactive)

* * *

Test system: OVCAR-3
assay.method.text: NCI tumour cell line growth inhibition, 48 h
Calls of active or inactive are those of the source. No stated cut-off is given here; in the data, active = GI50 up to about 1.1 µM and inactive = higher.
parameter: GI50

CC(=O)OC/C=C/Cn1nc(Br)c(=O)[nH]c1=O    > 100 µM (inactive)
CCOC(=O)C[n+]1ccc2c([nH]c3cc(OC)ccc32)c1C    > 79.1 µM (inactive)
CCCCN(Cc1ccccc1)/C(=N/C#N)N(Cc1ccccc1)Cc1ccccc1    4.3 µM (inactive)
OCCNc1ncnc2[nH]cnc12    > 100 µM (inactive)
Fc1cc(-c2cc(-c3ccc4c(c3)OCO4)n[nH]2)c(Cl)cc1Cl    2.21 µM (inactive)
COCOc1cc(OCOC)cc(C(=O)Oc2ccccc2)c1    > 100 µM (inactive)
CCOC(=O)C1(C(=O)OCC)OC(=O)NC2=C1CCCC2    > 100 µM (inactive)
N#Cc1cc2c(n(C3OC(CO)C(O)C(O)C3O)c1=S)CCCCC2 (stereo unspecified)    > 100 µM (inactive)
c1ccc([I+]c2ccccc2)cc1    > 100 µM (inactive)
CN(C)c1ccc(/C=C(\NC(=O)c2ccccc2)C2=NC(CCC(=O)O)C(=O)O2)cc1 (stereo unspecified)    > 50 µM (inactive)
CC1(C)CC(=O)C2=C(C1)S/C(=C1/SC3=C(S1)C(=O)CC(C)(C)C3)S2    > 251 µM (inactive)
Clc1ccc(C2=NCON=C2c2ccc(Cl)cc2)cc1    15.8 µM (inactive)
CNc1nc(=O)c(C#N)c(-c2ccc(C)cc2)s1    > 100 µM (inactive)
NC(=O)N/N=C(\Cc1cc(=O)oc2cc(O)ccc12)C(=O)Nc1ccccc1C(N)=O    > 100 µM (inactive)
Cc1ccc(OP2(=O)Oc3ccc4ccccc4c3CN2c2ccc(Cl)cc2)cc1C (stereo unspecified)    > 100 µM (inactive)
O=c1ccn(C2OC(CN(O)CCC3C(CO)OC(n4ccc(=O)[nH]c4=O)C3O)C(O)C2O)c(=O)[nH]1 (stereo unspecified)    > 100 µM (inactive)
CCOc1cc2c(cc1OC(C)=O)C(=O)CC[C@H]1C3CC[C@H](OC(C)=O)[C@@]3(C)CC[C@H]21 (stereo partly specified)    > 100 µM (inactive)
CC(=O)OC1CCC2(C)C(=CCC3C2CCC2(C)C3CC3OC4(CCC(C)CN4)C(C)C32)C1 (stereo unspecified)    > 100 µM (inactive)
CCN(CC)CCCC(C)Nc1cc(/C=C/c2ccc(Cl)cc2)nc2cc(N(C)C)ccc12 (stereo unspecified)    1.7 µM (inactive)
Cn1cc(NC(=O)c2cc(NC(=O)CCCCCC(=O)Nc3cc(C(=O)Nc4cc(C(=O)NCCC(=N)N)n(C)c4)n(C)c3)cn2C)cc1C(=O)NCCC(=N)N    > 100 µM (inactive)
O=CC12CCCN1CCC2    > 100 µM (inactive)
